- SYSTEM_TESTED: T1, Bcl-w
- T1 chain: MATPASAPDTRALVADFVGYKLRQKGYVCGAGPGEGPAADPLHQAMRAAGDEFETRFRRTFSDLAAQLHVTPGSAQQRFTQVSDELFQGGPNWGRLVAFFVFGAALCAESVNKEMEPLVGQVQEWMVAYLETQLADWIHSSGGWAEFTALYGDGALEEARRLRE
- PROTOCOL_DETAILS: competition phage ELISA
Fold/wt by entry:

Some entries whose results are on file:
[
  {
    "BINDER": "QEDIIANIARHLAQVGDSMDRSIPPG (M13 phage display: FLAG-26mer-GGGT-g3(249-406)) [Bid BH3 R6A, phage-displayed]",
    "Fold/wt": "2 fold"
  },
  {
    "BINDER": "QEDIIRNIAAHLAQVGDSMDRSIPPG (M13 phage display: FLAG-26mer-GGGT-g3(249-406)) [Bid BH3 R10A, phage-displayed]",
    "Fold/wt": "2 fold"
  },
  {
    "BINDER": "QEDIIRNIARHLAQVGDSMDRSIPAG (M13 phage display: FLAG-26mer-GGGT-g3(249-406)) [Bid BH3 P25A, phage-displayed]",
    "Fold/wt": "1 fold"
  },
  {
    "BINDER": "QEAIIRNIARHLAQVGDSMDRSIPPG (M13 phage display: FLAG-26mer-GGGT-g3(249-406)) [Bid BH3 D3A, phage-displayed]",
    "Fold/wt": "1 fold"
  }
]

Alright, here's another binder for you.
q: I have this binder here, QEDIIRNIARHLAQVGDSMDRSAPPG (M13 phage display: FLAG-26mer-GGGT-g3(249-406)) [Bid BH3 I23A, phage-displayed] , and I need its recorded Fold/wt.
a: 1 fold
